assay: Human HepG2 cell viability assay in 384 well format; assay type: toxicity, cell-based; parameters: dose 125 nL, time 70.5 hour; concentration not given beside the values; conditions: HepG2 cells, read-out: Inhibition
assayMetric: cytotoxicity at 70.5 h (%)
Express it in %; write the number only.

# compound, cytotoxicity at 70.5 h (%)
records = [
    ("CCCc1nnc(NCc2ccc(OC)c(C#N)c2)o1", 20.2),
    ("O=C(NCc1nncn1C1CCCCC1)C1COc2ccccc2C1 (configuration not stated)", -4),
    ("CC(O)Cc1cn(CC2CCN(c3nccc4occc34)CC2)nn1 (configuration not stated)", 4.74),
]

May I ask what cytotoxicity at 70.5 h has been recorded for CCC1=NOC(CNCc2cnc(-c3ccccc3C)s2)C1 (configuration not stated) ? -6.62

Sample Fc1ccc(OCc2nnc([C@H]3CCN(Cc4cccnc4)C3)o2)cc1 — what was its cytotoxicity at 70.5 h? -6.19

# input compound: COCc1ncc(CN2CC[C@@](O)(COC)C(C)(C)C2)cn1 ; wanted: its cytotoxicity at 70.5 h -18.6

Given the entry COc1ccccc1OCCC(=O)N1CCCCC1c1nccs1 (configuration not stated) , report its measured cytotoxicity at 70.5 h. 0.499

Endpoint output: cytotoxicity at 70.5 h of Cc1nc(NC(C)C)nc2c1CN(Cc1nccn1C)CC2 . Value? 0.21

State the recorded cytotoxicity at 70.5 h for this entry: CCc1nnc2n1CCN(Cc1ncc(-c3ccc(Cl)cc3)o1)C2 -7.58

----------
test: Human HepG2 cell viability assay in 384 well format; format: toxicity, cell-based; parameters: dose 125 nL, time 70.5 hour; concentration not given beside the values; settings: HepG2 cells, read-out: Inhibition
assayMetric: cytotoxicity at 70.5 h (%)
Form entry: value (%) — number only.

# compound, numericReadout
rows = [
    ("CN(Cc1cnc(N)nc1)C(=O)C1CC(=O)N(Cc2ccncc2)C1 (centres undefined)", -10.8),
    ("Cn1cccc1C1CCCCCN1C(=O)c1ccc(NC2CC2)nc1 (centres undefined)", 12.8),
    ("Cc1ccn(CC(=O)Nc2cc(-c3ccncc3)[nH]n2)n1", -2.4),
    ("O=C(CCC1CCN(C2CCSCC2)CC1)NCC1CCCO1 (centres undefined)", -12),
    ("CN(Cc1nnc2n1CCC2)C(=O)c1ccc2c(c1)OCCCO2", 18.9),
    ("CS(=O)(=O)N1CCC(C(=O)Nc2nnc(C(F)(F)F)[nH]2)CC1", -6.85),
    ("CCCn1nc(C)c(C(=O)N(C)[C@@H]2CC[C@@H](N3CCCC3)[C@@H]2O)c1C", -5.14),
    ("CCN(CCNS(=O)(=O)N1CCOCC1)C(=O)OC(C)(C)C", 30.7),
]

Here is the next item to consider.
Reported cytotoxicity at 70.5 h for c1ccc(Cn2ccnc2CN2CCCC2c2noc(C3CC3)n2)cc1 (centres undefined) : what is it? 8.17

----------
assay: Human HepG2 cell viability assay in 384 well format; format: toxicity, cell-based; design: dose 125 nL, time 70.5 hour; concentration not given beside the values; conditions: HepG2 cells, read-out: Inhibition
Below, each entry is listed with its recorded cytotoxicity at 70.5 h.

Consider the reported cytotoxicity at 70.5 h for these compounds:
# compound, assayMetric, result
rows = [
    ("O=C(NC1CCNCC1)C1(N2CCCCC2)Cc2ccccc2C1", "cytotoxicity at 70.5 h", "13.5%"),
    ("O=C(c1cc(Cl)cc2cccnc12)N1CCN(CCO)CC1", "cytotoxicity at 70.5 h", "-8.63%"),
    ("CCn1nc(C)c(NC(=O)c2cc(NC(=O)C(C)C)n(C)n2)c1C", "cytotoxicity at 70.5 h", "-5.54%"),
]

What cytotoxicity at 70.5 h value was documented for this compound, CCCN(CCN(C)C)C(=O)Cc1cn2ccsc2n1 ? 5.05%

Field request: cytotoxicity at 70.5 h | item: CCCc1cc(N2CCC(NC3CCOCC3)CC2)nc(C)n1 22.8%

Value lookup for cytotoxicity at 70.5 h; key = CNc1cccc(C2CCCN(C(=O)c3coc(C)n3)C2)n1 (configuration not stated) -0.702%

Could you tell me which cytotoxicity at 70.5 h is on file for COCc1noc(-c2ccc(N(C)Cc3cc(C)no3)nc2)n1 ? -6.05%

Record request: cytotoxicity at 70.5 h value, item NC(=O)c1c(SCCN2CCCCC2)sc2c(O)cc(=O)[nH]c12 -7.79%

Find the recorded cytotoxicity at 70.5 h belonging to O=C(CCN1CCCC(CC2CC2)(C(=O)O)C1)NC1CCCC1 (configuration not stated) and report it. -9.72%
